Biological target: UniProt P08173
Sequence (P08173 whole entry): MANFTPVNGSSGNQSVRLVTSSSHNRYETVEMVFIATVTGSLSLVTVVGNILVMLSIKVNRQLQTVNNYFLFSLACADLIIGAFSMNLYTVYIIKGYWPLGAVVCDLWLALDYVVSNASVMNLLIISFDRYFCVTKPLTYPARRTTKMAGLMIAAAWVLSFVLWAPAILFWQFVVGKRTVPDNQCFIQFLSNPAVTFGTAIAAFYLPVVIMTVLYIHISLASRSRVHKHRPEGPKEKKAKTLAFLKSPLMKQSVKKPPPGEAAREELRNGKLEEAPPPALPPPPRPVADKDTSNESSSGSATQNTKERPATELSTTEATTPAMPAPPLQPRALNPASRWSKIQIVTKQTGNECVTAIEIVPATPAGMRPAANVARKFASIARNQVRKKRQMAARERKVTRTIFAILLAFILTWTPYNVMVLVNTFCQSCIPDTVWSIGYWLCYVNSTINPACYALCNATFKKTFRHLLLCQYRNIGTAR
Test: Antagonist activity at human muscarinic M4 receptor expressed in CHO cells assessed as blockade of carbachol-induced inhibition of forskolin-stimulated cAMP accumulation
MEASURED_ATTRIBUTE: IC50 (nM)
Record the value in nM, omitting the unit from your answer.

// sample C[N+]1(CCCC(O)(c2ccccc2)c2ccccc2)CCC(C2CC[N+](C)(CCCC(O)(c3ccccc3)c3ccccc3)CC2)CC1 (configuration not stated) , its IC50 was 67

---

Target chain: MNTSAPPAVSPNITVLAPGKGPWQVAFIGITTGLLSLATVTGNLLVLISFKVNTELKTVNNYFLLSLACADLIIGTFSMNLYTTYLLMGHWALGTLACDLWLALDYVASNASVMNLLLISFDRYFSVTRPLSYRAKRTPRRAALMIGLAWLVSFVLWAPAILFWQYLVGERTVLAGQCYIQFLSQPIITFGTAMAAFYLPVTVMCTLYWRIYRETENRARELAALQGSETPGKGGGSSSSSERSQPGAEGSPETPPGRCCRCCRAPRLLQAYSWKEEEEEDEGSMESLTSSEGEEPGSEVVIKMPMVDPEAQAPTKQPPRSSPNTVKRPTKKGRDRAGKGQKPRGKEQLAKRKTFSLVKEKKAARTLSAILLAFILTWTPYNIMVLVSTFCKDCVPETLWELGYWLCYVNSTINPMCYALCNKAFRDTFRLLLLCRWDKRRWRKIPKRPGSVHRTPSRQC
MEASURED_ATTRIBUTE: pKi
Field pKi (float): negative decimal logarithm of the concentration in molar.

// sample CN1CCC(C2CCN(CCCC(O)(c3ccccc3)c3ccccc3)CC2)CC1 , its pKi was 5.24

// sample C[N+](C)(CCCC(O)(c1ccccc1)c1ccccc1)CCC[N+](C)(C)CCCC(O)(c1ccccc1)c1ccccc1 , its pKi was 5.14

// sample OC(CCCN1CCN(c2ccccc2)CC1)(c1ccccc1)c1ccccc1 , its pKi was 3.44

// sample OC(CCCN1CCNCC1)(c1ccccc1)c1ccccc1 , its pKi was 6.22

// sample C[N+]1(C)CCC(C2CC[N+](C)(CCCC(O)(c3ccccc3)c3ccccc3)CC2)CC1 (centres undefined) , its pKi was 5.08

// sample C[N+]1(CCCC(O)(c2ccccc2)c2ccccc2)CCCCC1 , its pKi was 6.70

// sample C[N+](C)(CCCC(O)(c1ccccc1)c1ccccc1)CC[N+](C)(C)CCCC(O)(c1ccccc1)c1ccccc1 , its pKi was 4.58

// sample CN(CCCN(C)CCCC(O)(c1ccccc1)c1ccccc1)CCCC(O)(c1ccccc1)c1ccccc1 , its pKi was 5.87

// sample C[N+]1(CCCC(O)(c2ccccc2)c2ccccc2)CCN(c2ccccc2)CC1 , its pKi was 4.76

---

Protein target, amino acids: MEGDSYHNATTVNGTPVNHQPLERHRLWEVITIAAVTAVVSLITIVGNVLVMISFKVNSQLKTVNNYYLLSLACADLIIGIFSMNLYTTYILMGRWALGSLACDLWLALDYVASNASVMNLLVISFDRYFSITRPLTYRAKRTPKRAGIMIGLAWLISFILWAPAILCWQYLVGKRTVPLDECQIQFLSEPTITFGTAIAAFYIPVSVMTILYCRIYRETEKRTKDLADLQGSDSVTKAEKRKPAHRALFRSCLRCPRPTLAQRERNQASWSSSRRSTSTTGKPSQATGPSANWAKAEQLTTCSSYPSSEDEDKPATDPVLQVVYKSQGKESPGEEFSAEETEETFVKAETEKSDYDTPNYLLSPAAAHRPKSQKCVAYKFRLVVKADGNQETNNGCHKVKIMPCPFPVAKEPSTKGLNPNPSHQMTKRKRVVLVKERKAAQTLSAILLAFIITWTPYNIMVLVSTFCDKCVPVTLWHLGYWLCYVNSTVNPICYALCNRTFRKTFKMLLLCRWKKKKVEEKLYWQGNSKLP
Where a name gives a salt, the structure may show the parent alone.
MEASURED_ATTRIBUTE: Ki (nM)
Record the value in nM, omitting the unit from your answer.

// sample C[N+]1(CCCC(O)(c2ccccc2)c2ccccc2)CCN(CCCC(O)(c2ccccc2)c2ccccc2)CC1 , its Ki was 1550

// sample C[N+]1(CCCC(O)(c2ccccc2)c2ccccc2)CCCCC1 , its Ki was 708

// sample OC(CCCN1CCNCC1)(c1ccccc1)c1ccccc1 , its Ki was 1410

// sample C[N+](C)(CCCC(O)(c1ccccc1)c1ccccc1)CCC[N+](C)(C)CCCC(O)(c1ccccc1)c1ccccc1 , its Ki was 7590

// sample CN1CCC(C2CCN(CCCC(O)(c3ccccc3)c3ccccc3)CC2)CC1 , its Ki was 2880

// sample OC(CCCN1CCCCC1)(c1ccccc1)c1ccccc1 [DIPHENIDOL HYDROCHLORIDE] , its Ki was 1290

---

Target chain: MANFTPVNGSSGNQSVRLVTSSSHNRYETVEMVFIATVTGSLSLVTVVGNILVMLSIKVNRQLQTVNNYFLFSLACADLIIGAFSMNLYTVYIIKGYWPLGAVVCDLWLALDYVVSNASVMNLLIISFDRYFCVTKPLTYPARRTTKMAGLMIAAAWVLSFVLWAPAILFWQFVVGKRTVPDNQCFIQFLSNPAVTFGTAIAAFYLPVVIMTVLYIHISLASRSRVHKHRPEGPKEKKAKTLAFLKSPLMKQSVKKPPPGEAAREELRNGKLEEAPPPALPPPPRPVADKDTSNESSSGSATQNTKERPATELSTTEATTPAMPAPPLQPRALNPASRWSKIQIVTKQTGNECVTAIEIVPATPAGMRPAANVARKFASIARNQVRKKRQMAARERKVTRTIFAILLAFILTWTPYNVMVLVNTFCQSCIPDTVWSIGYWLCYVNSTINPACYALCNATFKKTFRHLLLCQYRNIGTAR
Counter-ions that a name gives are not always drawn.
MEASURED_ATTRIBUTE: pKi
Field pKi (float): negative decimal logarithm of the concentration in molar.

// sample CN1CCN(CCCC(O)(c2ccccc2)c2ccccc2)CC1 , its pKi was 5.01

// sample OC(CCCN1CCN(c2ccccc2)CC1)(c1ccccc1)c1ccccc1 , its pKi was 4.00

// sample CN(CCCC(O)(c1ccccc1)c1ccccc1)CCN(C)CCCC(O)(c1ccccc1)c1ccccc1 , its pKi was 3.79

// sample C[N+]1(C)CCN(CCCC(O)(c2ccccc2)c2ccccc2)CC1 , its pKi was 5.32

// sample CN1CCC(C2CCN(CCCC(O)(c3ccccc3)c3ccccc3)CC2)CC1 , its pKi was 5.93

// sample OC(CCCN1CCCCC1)(c1ccccc1)c1ccccc1 [DIPHENIDOL HYDROCHLORIDE] , its pKi was 6.04

// sample OC(CCCN1CCN(CCCC(O)(c2ccccc2)c2ccccc2)CC1)(c1ccccc1)c1ccccc1 , its pKi was 4.65

---

MEASURED_ATTRIBUTE: Ki (µM)
Record the value in µM, omitting the unit from your answer.

So the reported Ki for OC(CCCN1CCN(c2ccccc2)CC1)(c1ccccc1)c1ccccc1 , on Muscarinic acetylcholine receptor M3 (Homo sapiens, UniProt P20309), turned out to be 70.8

So the reported Ki for C[N+]1(C)CCN(CCCC(O)(c2ccccc2)c2ccccc2)CC1 , on Muscarinic acetylcholine receptor M3 (Homo sapiens, UniProt P20309), turned out to be 4.07

So the reported Ki for C[N+](C)(CCCC(O)(c1ccccc1)c1ccccc1)CCC[N+](C)(C)CCCC(O)(c1ccccc1)c1ccccc1 , on Muscarinic acetylcholine receptor M3 (Homo sapiens, UniProt P20309), turned out to be 12.3

So the reported Ki for C[N+]1(CCCC(O)(c2ccccc2)c2ccccc2)CCN(CCCC(O)(c2ccccc2)c2ccccc2)CC1 , on Muscarinic acetylcholine receptor M3 (Homo sapiens, UniProt P20309), turned out to be 5.5

---

Target sequence: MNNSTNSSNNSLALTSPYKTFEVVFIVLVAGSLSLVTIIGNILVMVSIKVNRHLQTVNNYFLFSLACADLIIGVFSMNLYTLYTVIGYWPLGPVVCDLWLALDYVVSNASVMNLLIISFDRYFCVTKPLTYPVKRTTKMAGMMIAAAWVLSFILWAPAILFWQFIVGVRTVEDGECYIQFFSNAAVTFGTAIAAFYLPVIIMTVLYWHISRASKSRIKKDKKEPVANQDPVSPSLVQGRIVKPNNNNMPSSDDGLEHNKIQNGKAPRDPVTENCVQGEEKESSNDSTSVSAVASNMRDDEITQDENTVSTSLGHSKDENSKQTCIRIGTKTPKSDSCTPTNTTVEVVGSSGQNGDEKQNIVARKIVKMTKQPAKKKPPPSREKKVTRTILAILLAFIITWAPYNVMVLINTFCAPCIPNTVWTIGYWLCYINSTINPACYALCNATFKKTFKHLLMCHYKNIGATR
Counter-ions that a name gives are not always drawn.
# label = Y if Ki < 6 µM else N

## Task # check: Ki < 6 µM for OC(CCCN1CCNCC1)(c1ccccc1)c1ccccc1
## Result N

## Task # check: Ki < 6 µM for OC(CCCN1CCC(C2CCN(CCCC(O)(c3ccccc3)c3ccccc3)CC2)CC1)(c1ccccc1)c1ccccc1
## Result Y

## Task # check: Ki < 6 µM for CN1CCN(CCCC(O)(c2ccccc2)c2ccccc2)CC1
## Result N

## Task # check: Ki < 6 µM for CN(CCCN(C)CCCC(O)(c1ccccc1)c1ccccc1)CCCC(O)(c1ccccc1)c1ccccc1
## Result Y

## Task # check: Ki < 6 µM for CN1CCC(C2CCN(CCCC(O)(c3ccccc3)c3ccccc3)CC2)CC1
## Result Y

## Task # check: Ki < 6 µM for OC(CCCN1CCCCC1)(c1ccccc1)c1ccccc1 [DIPHENIDOL HYDROCHLORIDE]
## Result Y

## Task # check: Ki < 6 µM for C[N+]1(C)CCN(CCCC(O)(c2ccccc2)c2ccccc2)CC1
## Result N
